# system-tested: Sphingomyelin Synthase 1 (SMS1 pure enzyme) (Homo sapiens, UniProt Q86VZ5)
# Construct: Yu, Cao research group of National Protein Science Center (Shanghai)
# Sequence (Q86VZ5 whole entry, species assumed): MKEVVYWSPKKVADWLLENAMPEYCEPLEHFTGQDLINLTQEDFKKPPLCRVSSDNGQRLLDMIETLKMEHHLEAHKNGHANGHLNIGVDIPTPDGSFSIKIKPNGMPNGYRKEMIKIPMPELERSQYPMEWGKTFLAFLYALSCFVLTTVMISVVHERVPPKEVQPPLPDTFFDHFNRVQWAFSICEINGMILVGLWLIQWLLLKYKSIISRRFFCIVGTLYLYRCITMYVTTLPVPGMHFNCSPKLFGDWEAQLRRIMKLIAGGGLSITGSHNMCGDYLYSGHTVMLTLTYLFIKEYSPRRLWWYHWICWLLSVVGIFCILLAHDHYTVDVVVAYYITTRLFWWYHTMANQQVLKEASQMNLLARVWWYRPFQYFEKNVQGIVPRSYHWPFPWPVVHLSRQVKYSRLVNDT
# measurement-description: In vitro SMS1 pure enzyme inhibition, HPLC fluorogenic quantitative detecting method
# Assay type: biochemical
# condition-set: single concentration 50 μM
endpoint-name: inhibition at 50 µM (%)
Numbers only, in %.

INSERT INTO assay_data (query_smiles, endpoint_name, val) VALUES
  ('Cn1nc(Nc2cccnc2)c2c(OCc3ccccc3)cccc21', 'inhibition at 50 µM', 1);

# batch: return inhibition at 50 µM for each of the 5 compounds below
1. Fc1ccc(COc2cccc3onc(Nc4cccnc4)c23)cc1
2. c1ccc(COc2cccc3ccnc(Nc4cccnc4)c23)cc1
3. Cc1cccc(C)c1COc1cccc2onc(Nc3cccnc3)c12
4. COc1ccccc1COc1cccc2onc(Nc3cccnc3)c12
5. c1ccc(COc2cccc3snc(Nc4cccnc4)c23)cc1

1: 7; 2: 18; 3: 53; 4: 49; 5: 13

# batch: return inhibition at 50 µM for each of the 4 compounds below
1. FC(F)(F)Oc1ccc(Cl)cc1COc1cccc2onc(Nc3cccnc3)c12
2. N#Cc1cccc(COc2cccc3onc(Nc4cccnc4)c23)c1
3. Clc1ccc(COc2cccc3onc(Nc4cccnc4)c23)cc1
4. CN(C)CC(=O)Nc1noc2cccc(OCc3cc(F)ccc3Cl)c12

[49, 8, 5, 3]

# batch: return inhibition at 50 µM for each of the 2 compounds below
1. O=C(CN1CCCCC1)Nc1noc2cccc(OCc3cc(F)ccc3Cl)c12
2. Fc1cccc(COc2cccc3onc(Nc4cccnc4)c23)c1

1. 60
2. 6

# batch: return inhibition at 50 µM for each of the 5 compounds below
1. Cc1ccccc1COc1cccc2onc(Nc3cccnc3)c12
2. Cc1cccc(COc2cccc3onc(Nc4cccnc4)c23)c1
3. Cc1ccc(COc2cccc3onc(Nc4cccnc4)c23)cc1
4. Clc1cccc(COc2cccc3onc(Nc4cccnc4)c23)c1
5. Clc1cccc(Cl)c1COc1cccc2onc(Nc3cccnc3)c12

1: 41; 2: 20; 3: 5; 4: 44; 5: 25

# batch: return inhibition at 50 µM for each of the 3 compounds below
1. c1ccc(-c2cc(COc3cccc4onc(Nc5cccnc5)c34)ccn2)cc1
2. O=C(CN1CCCC1)Nc1noc2cccc(OCc3cc(F)ccc3Cl)c12
3. FC(F)(F)Oc1ccc(COc2cccc3onc(Nc4cccnc4)c23)cc1

1: -6; 2: 9; 3: 5

# batch: return inhibition at 50 µM for each of the 8 compounds below
1. FC(F)(F)c1ccc(COc2cccc3onc(Nc4cccnc4)c23)cc1
2. Fc1ccccc1COc1cccc2onc(Nc3cccnc3)c12
3. CC(C)(C)OC(=O)N1CCC(CCCOc2cccc3onc(Nc4cccnc4)c23)CC1
4. N#Cc1ccccc1COc1cccc2onc(Nc3cccnc3)c12
5. Fc1ccc(Cl)c(COc2cccc3onc(Nc4cncnc4)c23)c1
6. Fc1ccc(Cl)c(COc2cccc3onc(Nc4cccnc4)c23)c1
7. c1ccc(COc2cccc3[nH]nc(Nc4cccnc4)c23)cc1
8. FC(F)(F)c1cccc(COc2cccc3onc(Nc4cccnc4)c23)c1

9
6
9
4
60
44
-7
25

# batch: return inhibition at 50 µM for each of the 7 compounds below
1. COc1ccc(COc2cccc3onc(Nc4cccnc4)c23)cc1
2. FC(F)(F)Oc1ccccc1COc1cccc2onc(Nc3cccnc3)c12
3. CCc1ccccc1COc1cccc2onc(Nc3cccnc3)c12
4. COc1cccc(COc2cccc3onc(Nc4cccnc4)c23)c1
5. O=C(CN1CCOCC1)Nc1noc2cccc(OCc3cc(F)ccc3Cl)c12
6. Fc1cccc(F)c1COc1cccc2onc(Nc3cccnc3)c12
7. FC(F)(F)c1ccccc1COc1cccc2onc(Nc3cccnc3)c12

1: -5; 2: 59; 3: 65; 4: 17; 5: -1; 6: 30; 7: 21

# batch: return inhibition at 50 µM for each of the 4 compounds below
1. FC(F)(F)Oc1cccc(COc2cccc3onc(Nc4cccnc4)c23)c1
2. CCN(CC)CC(=O)Nc1noc2cccc(OCc3cc(F)ccc3Cl)c12
3. N#Cc1ccc(COc2cccc3onc(Nc4cccnc4)c23)cc1
4. CN(c1cccnc1)c1noc2cccc(OCc3c(Cl)cccc3Cl)c12

30
11
-18
29
